Experiment: amyloid nucleation score (Sup35N fusion, yeast selection) (log enrichment); library NNK3; higher = more nucleation; inactive = no reads after selection;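 further: zero at mode of non-aggregating sequences after 7 days selection at 30°C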
QUANTITY NAME: amyloid nucleation score

Some solved cases for reference:
>>> value_measured("CDVQKSLGCHTCWGRDWWNR")
"inactive"
>>> value_measured("YKQHYRRSRHCIKHYVGGSE")
"inactive"
>>> value_measured("HRSIRLYSETDWFRGLGSAG")
"inactive"
>>> value_measured("SRILRLRVSSSHVERYFKLF")
"inactive"

[ask] Read off the recorded amyloid nucleation score for SFIVETVDQDVLG
[reply] inactive

[ask] Read off the recorded amyloid nucleation score for RNSSNGSVHKQVFAVELKVP
[reply] inactive

[ask] Read off the recorded amyloid nucleation score for YYNVAMRCRSHHTRMSIFWC
[reply] inactive

[ask] Read off the recorded amyloid nucleation score for LNRWCCFSVITMCLMANFDA
[reply] 2

[ask] Read off the recorded amyloid nucleation score for AWRSMSGVTYPQGTSLPFSK
[reply] inactive

[ask] Read off the recorded amyloid nucleation score for TYVVMGFRCETFRIHNGLRR
[reply] inactive

[ask] Read off the recorded amyloid nucleation score for KIFVSFNKSKLEVHPPLKVI
[reply] inactive

[ask] Read off the recorded amyloid nucleation score for VDKLGSYPMPLVLGVVNTYQ
[reply] inactive

[ask] Read off the recorded amyloid nucleation score for KTYFRHTVRNTSSV
[reply] 1.52

[ask] Read off the recorded amyloid nucleation score for SFFEYLPTQPTR
[reply] inactive

[ask] Read off the recorded amyloid nucleation score for LSYLFFKPFWA
[reply] 0.357

[ask] Read off the recorded amyloid nucleation score for EYSFSLWSVSPAYTHITYGG
[reply] -0.192

[ask] Read off the recorded amyloid nucleation score for EPVFCMWLDMGLGPNDCRMA
[reply] inactive

[ask] Read off the recorded amyloid nucleation score for CLGFSL
[reply] inactive

[ask] Read off the recorded amyloid nucleation score for SLGSMAAVLSPSTAERPANL
[reply] inactive

---

This listing pairs sequences with measured amyloid nucleation score.
Assay: amyloid nucleation score (Sup35N fusion, yeast selection) (log enrichment); library NNK3; higher = more nucleation; inactive = no reads after selection
Number only, no unit.

Some solved cases for reference:
>>> value_measured("STSRGNRFACPCFDYCWFRE")
-0.598
>>> value_measured("IVCISLCLAAEKQPSGCEFG")
2.01
>>> value_measured("FYVNINFSELVSVDTISSFI")
0.208
>>> value_measured("FMHSLTGNSGWGKGYRKSHV")
1.04
>>> value_measured("FRYQDNDLLAHAA")
-0.474

[ask] Read off the recorded amyloid nucleation score for SVIILYRCSFRGWRSHASGN
[reply] 1.05

[ask] Read off the recorded amyloid nucleation score for PVISMHIVVLCGKQKKTMSP
[reply] 0.594

---

Test: amyloid nucleation score (Sup35N fusion, yeast selection) (log enrichment); library NNK2; higher = more nucleation; inactive = no reads after selection
This listing pairs sequences with measured amyloid nucleation score.
Number only, no unit.

[ask] Read off the recorded amyloid nucleation score for LYKYLCAIIKNVDKVVPLRM
[reply] -0.904

[ask] Read off the recorded amyloid nucleation score for MSAMPDWFPLQWNWRLGQVL
[reply] 1.33

[ask] Read off the recorded amyloid nucleation score for SGNIAMFVPSVRWSVRDYCC
[reply] 1.06

[ask] Read off the recorded amyloid nucleation score for IVNINYCFTFKVPNHNNSMK
[reply] 7.92

[ask] Read off the recorded amyloid nucleation score for MNHTDGQHCFVSWRCLDGWR
[reply] 0.705

[ask] Read off the recorded amyloid nucleation score for VFLTGCIPR
[reply] 0.052

[ask] Read off the recorded amyloid nucleation score for LYSLEKTCQVELCRRISTLL
[reply] -1.35

[ask] Read off the recorded amyloid nucleation score for IGVLISVGNLSYSTYSSRFI
[reply] 5.87

[ask] Read off the recorded amyloid nucleation score for VWRWSKRNATYIGAGIWSGR
[reply] 1.42
